From: ChEMBL document CHEMBL4219118

SYSTEM TESTED: Cathepsin B (Homo sapiens, UniProt P07858)
TEST METHOD NOTES: Inhibition of recombinant human cathepsin B exopeptidase activity assessed as inhibitory constant for enzyme-inhibitor complex using Abz-Gly-Ile-Val-Arg-Ala-Lys(Dnp)-OH as substrate in presence of pH 5 acetate buffer by fluorescence assay
METRIC NAME: Ki

For orientation, consider the following solved cases.
N#CCN(Cc1ccccc1)Cc1cc([N+](=O)[O-])ccc1O = Not Active
Cc1ccc([N+](=O)[O-])c2cccnc12 = Not Active
O=[N+]([O-])c1ccc(-c2cc3ccccc3o2)c2ncccc12 = Not Active
CN(CC#N)Cc1cc([N+](=O)[O-])ccc1O = Not Active
Cc1ccc2c([N+](=O)[O-])cc([N+](=O)[O-])c(O)c2n1 = Not Active
CC(=O)c1ccc(-c2c(-c3ccc([N+](=O)[O-])c4cccnc34)oc3ccccc23)cc1 = Not Active

Please find the next compound below.
Ask: # get_value(readout='Ki', item= O=[N+]([O-])c1ccc(-c2c(-c3ccc([N+](=O)[O-])c4cccnc34)oc3ccccc23)cc1 )
Reply: Not Active

* * *

SYSTEM TESTED: Cathepsin B (Homo sapiens)
TEST METHOD NOTES: Non-competitive inhibition of recombinant human cathepsin B exopeptidase activity assessed as inhibitory constant for enzyme-substrate-inhibitor complex using Abz-Gly-Ile-Val-Arg-Ala-Lys(Dnp)-OH as substrate in presence of pH 5 acetate buffer by fluorescence assay
Label TRUE when Ki is strictly below 200 µM; at or above that, label FALSE.

# example entries with known answers
N#CCNC(=O)c1cc([N+](=O)[O-])ccc1O = TRUE
Cn1cccc1-c1ccc([N+](=O)[O-])c2cccnc12 = FALSE
O=C(O)c1ccc2c([N+](=O)[O-])ccc(O)c2n1 = FALSE
CC1CCN(C(=O)c2cc([N+](=O)[O-])c3cccnc3c2O)CC1 = TRUE

Please look at the following molecule next.
Ask: API: query returns whether the molecule falls strictly under 200 µM in Ki. Query: Nc1ccc2c([N+](=O)[O-])ccc(O)c2n1
Reply: FALSE

* * *

SYSTEM TESTED: UniProt P07858
TEST METHOD NOTES: Competitive inhibition of recombinant human cathepsin B endopeptidase activity assessed as inhibitory constant for enzyme-inhibitor complex using Z-Arg-Arg-AMC as substrate in presence of pH 4.5 acetate buffer by fluorescence assay
CONDITION SUMMARY: read-out: Ki
METRIC NAME: Ki (µM)
Answer in µM, number only, no unit symbol.

For orientation, consider the following solved cases.
N#Cc1ccc2c([N+](=O)[O-])ccc(O)c2n1 = 123
N#CCN(Cc1ccccc1)C(=O)c1ccc2c([N+](=O)[O-])cc([N+](=O)[O-])c(O)c2n1 = 163
N#CCNC(=O)c1cc([N+](=O)[O-])c2cccnc2c1O = 206

Ask: Quick check: Ki on UniProt P07858, item Cc1ccc2c([N+](=O)[O-])ccc(O)c2n1 ?
Reply: 153

Ask: Now the molecule N#CCNC(=O)c1ccc([N+](=O)[O-])c2cccnc12
Reply: 294

Ask: Now the molecule N#CCN(Cc1ccccc1)C(=O)c1cc([N+](=O)[O-])c2cccnc2c1O
Reply: 132

Ask: Now the molecule N#CCNC(=O)c1ccc2c([N+](=O)[O-])cc([N+](=O)[O-])c(O)c2n1
Reply: 29

Ask: Now the molecule O=C(NCC1CCN(c2nc3ccccc3o2)CC1)c1cc([N+](=O)[O-])c2cccnc2c1O
Reply: 237

* * *

Listing: pKi of selected molecules
SYSTEM TESTED: Cathepsin B (Homo sapiens, UniProt P07858)
TEST METHOD NOTES: Uncompetitive inhibition of recombinant human cathepsin B endopeptidase activity assessed as inhibitory constant for enzyme-substrate-inhibitor complex using Z-Arg-Arg-AMC as substrate in presence of pH 6 phosphate buffer by fluorescence assay
// pKi here means minus log10 of the molar concentration (mol/L)

Ask: # get_value(readout='pKi', item= N#CC1(NC(=O)c2cc([N+](=O)[O-])c3cccnc3c2O)CC1 )
Reply: 3.91

Ask: Now the molecule N#CCN(Cc1ccccc1)C(=O)c1ccc2c([N+](=O)[O-])ccc(O)c2n1
Reply: 4.47

Ask: Now the molecule N#CCNC(=O)c1cc([N+](=O)[O-])c2cccnc2c1O
Reply: 4.17

Ask: Now the molecule N#Cc1ccc2c([N+](=O)[O-])cc([N+](=O)[O-])c(O)c2n1
Reply: 4.41

Ask: Now the molecule N#CCN(Cc1ccccc1)C(=O)c1ccc2c([N+](=O)[O-])cc([N+](=O)[O-])c(O)c2n1
Reply: 5.05

* * *

SYSTEM TESTED: Cathepsin B (Homo sapiens)
TEST METHOD NOTES: Inhibition of recombinant human cathepsin B exopeptidase activity assessed as inhibitory constant for enzyme-substrate-inhibitor complex using Abz-Gly-Ile-Val-Arg-Ala-Lys(Dnp)-OH as substrate in presence of pH 5 acetate buffer by fluorescence assay
METRIC NAME: Ki

For orientation, consider the following solved cases.
O=C(O)c1ccc([N+](=O)[O-])c2cccnc12 = Not Active
CN(CC#N)C(=O)c1cc([N+](=O)[O-])ccc1O = Not Active
N#Cc1ccc(-c2ccc([N+](=O)[O-])c3cccnc23)cc1 = Not Active
N#Cc1ccc(-c2ccc(-c3ccc([N+](=O)[O-])c4cccnc34)o2)cc1 = Not Active
O=[N+]([O-])c1ccc(-c2ccc[nH]2)c2ncccc12 = Not Active
N#CCN(Cc1ccccc1)Cc1cc([N+](=O)[O-])ccc1O = Not Active
CC(=O)c1ccc(-c2c(-c3ccc([N+](=O)[O-])c4cccnc34)oc3ccccc23)cc1 = Not Active
Cc1cccc(-c2ccc([N+](=O)[O-])c3cccnc23)c1 = Not Active
O=[N+]([O-])c1ccc(-c2ccccc2)c2ncccc12 = Not Active
CN(CC#N)Cc1cc([N+](=O)[O-])ccc1O = Not Active

Ask: # get_value(readout='Ki', item= Cc1ccc2c([N+](=O)[O-])cc([N+](=O)[O-])c(O)c2n1 )
Reply: Not Active

Ask: Now the molecule CC(=O)c1ccc(-c2ccc(-c3ccc([N+](=O)[O-])c4cccnc34)s2)cc1
Reply: Not Active

Ask: Now the molecule O=[N+]([O-])c1ccc(-c2cc3ccccc3o2)c2ncccc12
Reply: Not Active

Ask: Now the molecule Cc1ccc(-c2ccc([N+](=O)[O-])c3cccnc23)cc1
Reply: Not Active

Ask: Now the molecule O=[N+]([O-])c1cccc(-c2ccc([N+](=O)[O-])c3cccnc23)c1
Reply: Not Active

Ask: Now the molecule O=C(c1cc([N+](=O)[O-])ccc1O)N1CCCCC1
Reply: Not Active

Ask: Now the molecule N#CCNCc1cc([N+](=O)[O-])ccc1O
Reply: Not Active

Ask: Now the molecule NC(=O)c1ccc([N+](=O)[O-])c2cccnc12
Reply: Not Active

Ask: Now the molecule Cc1ccc(-c2ccc([N+](=O)[O-])c3cccnc23)s1
Reply: Not Active

Ask: Now the molecule O=[N+]([O-])c1ccc(-c2ccco2)c2ncccc12
Reply: Not Active

Ask: Now the molecule CC(=O)c1ccc(-c2ccc(-c3ccc([N+](=O)[O-])c4cccnc34)n2C)cc1
Reply: Not Active

Ask: Now the molecule O=C(NCC1CCN(Cc2nc3ccccc3s2)CC1)c1cc([N+](=O)[O-])c2cccnc2c1O
Reply: Not Active

Ask: Now the molecule Cc1ccc([N+](=O)[O-])c2cccnc12
Reply: Not Active

* * *

Tested on: U-87 MG
TEST METHOD NOTES: Cytotoxicity against human U87MG cells assessed as decrease in cell viability after 72 hrs by MTS assay
Assay type: cell-based
CONDITION SUMMARY: u-87mg atcc
METRIC NAME: Activity

For orientation, consider the following solved cases.
N#CCN(Cc1ccccc1)C(=O)c1cc([N+](=O)[O-])c2cccnc2c1O = Non-Toxic
O=C(NCC1CCN(c2nc3ccccc3o2)CC1)c1cc([N+](=O)[O-])c2cccnc2c1O = Non-Toxic
N#CCNC(=O)c1cc([N+](=O)[O-])c2cccnc2c1O = Non-Toxic
Cc1ccc2c([N+](=O)[O-])ccc(O)c2n1 = Non-Toxic
N#CCN(Cc1ccccc1)C(=O)c1ccc2c([N+](=O)[O-])cc([N+](=O)[O-])c(O)c2n1 = Non-Toxic

Ask: # get_value(readout='Activity', item= N#CC1(NC(=O)c2cc([N+](=O)[O-])c3cccnc3c2O)CC1 )
Reply: Non-Toxic

* * *

Listing: Ki of selected molecules
SYSTEM TESTED: Cathepsin B (Homo sapiens, UniProt P07858)
TEST METHOD NOTES: Mixed inhibition of recombinant human cathepsin B exopeptidase activity assessed as inhibitory constant for enzyme-substrate-inhibitor complex using Abz-Gly-Ile-Val-Arg-Ala-Lys(Dnp)-OH as substrate in presence of pH 5 acetate buffer by fluorescence assay

For orientation, consider the following solved cases.
CN(CC#N)C(=O)c1ccc2c([N+](=O)[O-])cc([N+](=O)[O-])c(O)c2n1 = 109 µM
COCCCOc1cc(-c2ccc([N+](=O)[O-])c3cccnc23)ccc1OC = 22 µM

Ask: Quick check: Ki on Cathepsin B (Homo sapiens, UniProt P07858), item N#CCN(Cc1ccccc1)C(=O)c1ccc2c([N+](=O)[O-])cc([N+](=O)[O-])c(O)c2n1 ?
Reply: 35 µM

Ask: Now the molecule Cc1ccc2c([N+](=O)[O-])ccc(O)c2n1
Reply: 77 µM

Ask: Now the molecule N#CCNC(=O)c1cc([N+](=O)[O-])c2cccnc2c1O
Reply: 30 µM

Ask: Now the molecule N#CCN(Cc1ccccc1)C(=O)c1ccc2c([N+](=O)[O-])ccc(O)c2n1
Reply: 18 µM

Ask: Now the molecule N#CCN(Cc1ccccc1)C(=O)c1cc([N+](=O)[O-])c2cccnc2c1O
Reply: 32 µM

Ask: Now the molecule N#CCNC(=O)c1ccc2c([N+](=O)[O-])cc([N+](=O)[O-])c(O)c2n1
Reply: 34 µM
